protein stability index values by entry
Experiment: protein stability index of a GFP-peptide fusion (GPS, HEK-293T) (PSI 1-6); higher = more stable;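 note: 24-mer peptide tiles fused after GFP, lentivirally expressed, FACS-sorted into six equal bins by GFP/DsRed ratio, decoded by Illumina sequencing, PSI is the read-weighted mean bin number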
Settings: treatment: MLN4924 1 uM, 8 h; c terminus: a fixed tail appended
Give a plain numeric answer without units written out.

Before answering, review these 8 worked examples.
{"RESIDUE_CODES": "QTTTAYKKTHETLSHAGQKATAAF [TPD52L1]", "protein stability index": 3.98}
{"RESIDUE_CODES": "MRYLRNHCLDQVGLFRKSGVKSRI [DLC1]", "protein stability index": 2.64}
{"RESIDUE_CODES": "IFIARRSLLDELLEVDHIRTIYHM [SOAT1]", "protein stability index": 2.66}
{"RESIDUE_CODES": "PGKDYDADRQCQLTFGPDSRHCPQ [ADAMTS4]", "protein stability index": 4.67}
{"RESIDUE_CODES": "SSCIPKAFGNPKFALQGLPLNCAP [IRX6]", "protein stability index": 2.75}
{"RESIDUE_CODES": "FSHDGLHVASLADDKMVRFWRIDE [WSB1]", "protein stability index": 2.72}
{"RESIDUE_CODES": "PLLLKEILKHTPKEHPDVQLLEDA [NET1]", "protein stability index": 4.06}
{"RESIDUE_CODES": "HTDSKYEHAIAEAQKNMYFKTRLK [ZNF396]", "protein stability index": 3.5}

Prompt: Consider the sequence shown here: QLQLKIIEIEDEAEKWQKEKDRIK [TRIM29] What is its recorded protein stability index?
Completion: 3.6

Prompt: // query: RQSVENDIHGLRKVIDDTNITRLQ [KRT18]
Completion: 4.13

Prompt: // query: PGRREGCDICAGKAGCPIVEEPLG [RPS21]
Completion: 4.25

Prompt: // query: PQVPPSQPLRPWAGGDVPHKTHQA [DYRK1B]
Completion: 4.63

###

Assay: protein stability index of a GFP-peptide fusion (GPS, HEK-293T) (PSI 1-6); higher = more stable
Details: treatment: MLN4924 1 uM, 8 h; c terminus: a fixed tail appended
ENDPOINT_LABEL: protein stability index
Give a plain numeric answer without units written out.

Before answering, review these 5 worked examples.
{"RESIDUE_CODES": "PRDLPKHTPLISKSQSLRSVRRSE [RASAL3]", "protein stability index": 5.43}
{"RESIDUE_CODES": "LSIQLQPKETQPFPKSEQVYLHFL [ZNF232]", "protein stability index": 2.52}
{"RESIDUE_CODES": "YCLTCEVPTCSMCKVFGIHKACEV [TRIM63]", "protein stability index": 2.8}
{"RESIDUE_CODES": "SNVRGSLNVNLNSVVLRRARGGAV [DUSP5]", "protein stability index": 4.1}
{"RESIDUE_CODES": "RFNQAILVSRHDPASRRRVVEEVR [LPCAT4]", "protein stability index": 3.59}

Prompt: Consider the sequence shown here: AKLHDVELHQVAERVEALGQFVMK [GNB5] What is its recorded protein stability index?
Completion: 3.74

Prompt: // query: MEYCLEVIKENDPSGFLQISDALI [TRIM9]
Completion: 2.69

Prompt: // query: AAAQSYPGYLPYSPEPPSLYGALN [IRX6]
Completion: 2.87

Prompt: // query: NRSLAEACSEGDVNAVRKLLIEGR [ANKRD17]
Completion: 4.12

Prompt: // query: FIYSTWKGRTIYLEDIYVMPEYRG [SAT2]
Completion: 2.8

Prompt: // query: TFASLIGPFGGFFASGFKRAFKIK [CDS1]
Completion: 1.85

Prompt: // query: YTVNFLEAKEGDLHRIEIPFKFHM [CARM1]
Completion: 3.15

###

Experiment: protein stability index of a GFP-peptide fusion (GPS, HEK-293T) (PSI 1-6); higher = more stable
Details: treatment: DMSO; c terminus: a fixed tail appended
protein stability index values by entry
Give a plain numeric answer without units written out.

Before answering, review these 2 worked examples.
{"RESIDUE_CODES": "PQKLKEVISLEKLNVGNERYVFEA [GAN]", "protein stability index": 2.96}
{"RESIDUE_CODES": "DKVIELHKSHRGMTPAEAEMHFLE [EPB41L3]", "protein stability index": 4.51}

Prompt: Consider the sequence shown here: LFLGQGIQVSLYCQEWYARRHCPL [SOAT2] What is its recorded protein stability index?
Completion: 2.83

Prompt: // query: AAAQSYPGYLPYSPEPPSLYGALN [IRX6]
Completion: 2.68

Prompt: // query: TEPPVALAPGPAPTRCLPGHKEEE [ESRRA]
Completion: 5.28

Prompt: // query: LTNNVDLDNTKKKMEIYQKENKDV [MNAT1]
Completion: 5.34

Prompt: // query: LATQSLTVETCRALGKLLPRETLC [LRRC45]
Completion: 2.44

Prompt: // query: FYSQEWYARQHCPLKNPTFLDYVR [SOAT1]
Completion: 2.4

Prompt: // query: FGGSFMAPSPSPVTPAQNNLLQPN [SNAP91]
Completion: 2.64

Prompt: // query: PAEDPDDYDDGFSMKHTATARFQR [SMARCE1]
Completion: 4.81

Prompt: // query: SLQTGNHSNGPTDLSMKGGASTTS [NOL4L]
Completion: 4.12

Prompt: // query: SEYRSDIINAKSNDGWTPLHVAAH [ASB7]
Completion: 3.19

Prompt: // query: DDSDTQQVVVLVRDNGDPSLSSTA [PCDHGC5]
Completion: 4.76

Prompt: // query: IKSKKKLLQIIDTTLLKCYLHTNV [VPS39]
Completion: 3.04

Prompt: // query: TGKGPSTHTQIDQQPPRLLIVHIA [M1AP]
Completion: 2.54

Prompt: // query: VHNIVIFMRTSVKISYIGLMTQSS [TMEM106C]
Completion: 2.83

Prompt: // query: NLQDLCRIKIRQCIGLQNLKLLDE [ASB7]
Completion: 3.57

Prompt: // query: AAAAAAASAAAATAAFTTAKAAAL [SPAG8]
Completion: 2.33

Prompt: // query: DLSPLLGFWQLPPPATQNTFGNST [PLAGL1]
Completion: 2.36

Prompt: // query: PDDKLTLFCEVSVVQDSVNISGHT [SPOPL]
Completion: 2.47

Prompt: // query: QQVPMPPGQEAQRVVCGIDSSMIL [NEK8]
Completion: 3.39

Prompt: // query: STYRPLPDPSVWSRRYTEMALPFF [MYORG]
Completion: 2.36

Prompt: // query: RGGMLSASAETLPAGFRVSTLGTL [PPFIA4]
Completion: 3.26

Prompt: // query: HPSGHWATCRLCGEQVGRGPGFHA [ZBED3]
Completion: 2.52

Prompt: // query: WEEEEDHEKERPEHKSLESLADGG [FANCE]
Completion: 5.46

Prompt: // query: DHWNNEKERILLVTDKTLLICKYD [TPRG1]
Completion: 2.18

###

Test: protein stability index of a GFP-peptide fusion (GPS, HEK-293T) (PSI 1-6); higher = more stable
Conditions: treatment: DMSO; c terminus: a fixed tail appended
ENDPOINT_LABEL: protein stability index
Give a plain numeric answer without units written out.

Before answering, review these 5 worked examples.
{"RESIDUE_CODES": "HLNRGNHEDHMVNLRYGFTKEVMN [PPEF2]", "protein stability index": 2.99}
{"RESIDUE_CODES": "IPQGICPVGRSWHSLTPVSSDHLF [KLHDC2]", "protein stability index": 2.68}
{"RESIDUE_CODES": "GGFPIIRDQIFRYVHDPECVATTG [FBXO3]", "protein stability index": 2.14}
{"RESIDUE_CODES": "MHYCAVPPRGPLGQGAMFRLPTDS [NEUROD6]", "protein stability index": 2.97}
{"RESIDUE_CODES": "EENRLREELRQEWEAKQEKIKSEE [FAM50A]", "protein stability index": 5.59}

In the following, a different sequence is considered.
Prompt: Consider the sequence shown here: KKHGTQNKRAALQALKRKKRFEKQ [CHMP4C] What is its recorded protein stability index?
Completion: 4.52

###

Experiment: protein stability index of a GFP-peptide fusion (GPS, HEK-293T) (PSI 1-6); higher = more stable
Conditions: treatment: MLN4924 1 uM, 8 h; c terminus: a fixed tail appended
ENDPOINT_LABEL: protein stability index
Give a plain numeric answer without units written out.

{"RESIDUE_CODES": "FGGSFMAPSPSPVTPAQNNLLQPN [SNAP91]", "protein stability index": 3.09}

Prompt: Consider the sequence shown here: LMPGVPPLMPGMPPVMPGMPPGLH [ZNF207] What is its recorded protein stability index?
Completion: 2.99

Prompt: // query: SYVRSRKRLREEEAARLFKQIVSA [TRIB1]
Completion: 3.09
